Data credit: ChEMBL document CHEMBL1124866

# System: Jurkat
# procedure.details: Activity on rosetting of jurkat T-cells with SRBC at the concentration of 10e-4 M
# Format: functional, Homo sapiens
Peptide text beside a SMILES is read from it.
Kindly state No. of rosettes/100 Jurkat T cells for each of the entries shown.

Exercise: Would you mind telling me what No. of rosettes/100 Jurkat T cells value was observed for NCCCC[C@H](NC(=O)[C@@H](N)CC(=O)O)C(=O)O (H-Asp-Lys-OH) ?
Key: 53

Exercise: And for N[C@@H](CO)C(=O)N[C@@H](CC(=O)O)C(=O)O (H-Ser-Asp-OH) ?
Key: 46

Exercise: Same again, this time with CC(=O)N[C@@H](C)C(=O)N[C@@H](CC(=O)O)C(=O)N[C@@H](CCCCN)C(=O)N1CCC[C@H]1C(=O)O (Ac-ADKP-OH)
Key: 54

Exercise: Follow-up item: CC(=O)N[C@@H](CO)C(=O)N[C@@H](CC(=O)O)C(=O)O (Ac-Ser-Asp-OH)
Key: 39

Exercise: Now try NCCCC[C@H](NC(=O)[C@H](CC(=O)O)NC(=O)[C@@H](N)CO)C(=O)N1CCC[C@H]1C(=O)O (H-SDKP-OH) .
Key: 47

Exercise: Repeat for the following molecule: NCCCC[C@H](NC(=O)[C@@H](N)CC(=O)O)C(=O)N1CCC[C@H]1C(=O)O (H-Asp-Lys-Pro-OH)
Key: 55
